This section presents sequences with their documented IC50 values.
- study.target: HLA-DRB1*01:01 (Homo sapiens, UniProt P01903+P01911, A100R/D57E/F55L/F60I/F76Y/I96L/L162R/M171V/P40L/Q125E/R42F/V115G/Y59C)
- Construct: EBV transformed homozygous cell lines were used as sources of MHC molecules; endogenous in cells; host or cells: EBV transformed homozygous cell lines
- assay.comment: HLA class II peptide binding, inhibition of radiolabeled peptide binding to purified MHC
- conditions.used: wild-type (unmodified Arg) 15-mer peptide; purified HLA-DRB1*01:01; read-out: DRB1*01:01 binding capacity, WT peptide (IC50 nM)
Ends that are not written are not given here.

| primary.sequence | IC50 |
| --- | --- |
| ENGSPGPMGPRGLPG [Collagen 316 WT] | > 40000 nM |
| TGPKGARGAQGPPGA [Collagen 881 WT] | 17000 nM |
| PTGKQGDRGEAGAQG [Collagen 1081 WT] | 31000 nM |
| LPGARGLTGRPGDAG [Collagen 556 WT] | 851 nM |
| ERQMREMEENFAVEA [Vimentin 341 WT] | 11100 nM |
| GIAGAPGFPGPRGPP [Collagen 426 WT] | 239 nM |
| GIVGLPGQRGERGFP [Collagen 981 WT] | 6.4 nM |
| NDALRQAKQESTEYR [Vimentin 306 WT] | 15400 nM |
| MALDIEIATYRKLLE [Vimentin 391 WT] | 86 nM |
| ERGLKGHRGFTGLQG [Collagen 1126 WT] | 29 nM |
| GHRGFTGLQGLPGPP [Collagen 1131 WT] | 0.77 nM |
| GLPGAPGLRGLPGKD [Collagen 621 WT] | 810 nM |
| PGQRGERGFPGLPGP [Collagen 986 WT] | 743 nM |
| LAGQRGIVGLPGQRG [Collagen 976 WT] | 20 nM |
| GDRGEAGAQGPMGPS [Collagen 1086 WT] | 9550 nM |
| ERGRTGPAGAAGARG [Collagen 331 WT] | 1610 nM |
| RGQPGVMGFPGPKGA [Collagen 596 WT] | 422 nM |
| ANYQDTIGRLQDEIQ [Vimentin 356 WT] | 625 nM |
| STEYRRQVQSLTCEV [Vimentin 316 WT] | 138 nM |
| PGIDMSAFAGLGPRE [Collagen 1216 WT] | 8.7 nM |
| EIATYRKLLEGEESR [Vimentin 396 WT] | 52 nM |
| GPSGKDGPKGARGDS [Collagen 921 WT] | > 40000 nM |
| QAKQESTEYRRQVQS [Vimentin 311 WT] | 1500 nM |
| PPGPQGPAGEQGPRG [Collagen 121 WT] | 22400 nM |
| PGFPGPRGPPGPQGA [Collagen 431 WT] | > 40000 nM |
| PNFSSLNLRETNLDS [Vimentin 416 WT] | 538 nM |
| TIGRLQDEIQNMKEE [Vimentin 361 WT] | 13700 nM |
| VLLTLLVAAVLRCQG [Collagen 11 WT] | 148 nM |
| ARGAQGPPGATGFPG [Collagen 886 WT] | 32200 nM |
| LGVMQGPMGPMGPRG [Collagen 196 WT] | 19 nM |
| LGPREKGPDPLQYMR [Collagen 1226 WT] | 6720 nM |
